Target: ROCK2 (Homo sapiens (Human), UniProt O75116)
Sequence (O75116 whole entry, species assumed): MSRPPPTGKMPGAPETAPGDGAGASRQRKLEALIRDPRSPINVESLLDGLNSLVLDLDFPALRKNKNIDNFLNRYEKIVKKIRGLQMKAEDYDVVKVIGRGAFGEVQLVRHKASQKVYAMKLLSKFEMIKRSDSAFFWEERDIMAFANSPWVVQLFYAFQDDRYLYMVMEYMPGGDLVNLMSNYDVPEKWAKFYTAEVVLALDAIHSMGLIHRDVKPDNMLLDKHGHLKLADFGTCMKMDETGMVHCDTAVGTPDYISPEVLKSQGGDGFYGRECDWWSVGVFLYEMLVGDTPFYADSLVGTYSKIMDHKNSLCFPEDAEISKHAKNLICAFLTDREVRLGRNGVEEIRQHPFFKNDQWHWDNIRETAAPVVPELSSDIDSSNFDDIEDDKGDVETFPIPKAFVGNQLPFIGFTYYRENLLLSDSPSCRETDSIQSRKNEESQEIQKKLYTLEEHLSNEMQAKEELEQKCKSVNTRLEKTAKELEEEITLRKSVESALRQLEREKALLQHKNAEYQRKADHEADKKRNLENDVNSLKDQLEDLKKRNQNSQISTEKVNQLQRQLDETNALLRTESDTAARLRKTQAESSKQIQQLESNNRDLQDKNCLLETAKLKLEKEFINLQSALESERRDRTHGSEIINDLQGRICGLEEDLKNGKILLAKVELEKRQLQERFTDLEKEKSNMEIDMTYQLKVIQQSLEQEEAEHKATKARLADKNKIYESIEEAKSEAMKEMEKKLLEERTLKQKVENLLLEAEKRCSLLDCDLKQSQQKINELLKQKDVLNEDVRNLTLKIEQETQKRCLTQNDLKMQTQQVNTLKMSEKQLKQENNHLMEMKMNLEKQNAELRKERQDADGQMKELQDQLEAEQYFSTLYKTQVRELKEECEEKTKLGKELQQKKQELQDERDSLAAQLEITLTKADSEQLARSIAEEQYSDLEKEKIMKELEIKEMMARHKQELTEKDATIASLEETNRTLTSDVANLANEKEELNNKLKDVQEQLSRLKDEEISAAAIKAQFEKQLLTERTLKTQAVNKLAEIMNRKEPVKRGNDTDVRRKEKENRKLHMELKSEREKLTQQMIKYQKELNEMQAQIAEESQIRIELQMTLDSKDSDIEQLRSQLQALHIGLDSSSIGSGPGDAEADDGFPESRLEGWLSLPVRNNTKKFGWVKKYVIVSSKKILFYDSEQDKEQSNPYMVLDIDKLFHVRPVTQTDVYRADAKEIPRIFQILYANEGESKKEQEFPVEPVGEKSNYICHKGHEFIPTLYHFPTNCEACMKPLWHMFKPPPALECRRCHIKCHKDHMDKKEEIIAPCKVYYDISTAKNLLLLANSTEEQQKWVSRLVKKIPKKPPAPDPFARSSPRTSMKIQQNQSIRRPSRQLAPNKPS
Assay: Rho-kinase inhibition ELISA (ROCK active-II, MYPT1 substrate)
Format: biochemical
Settings: Table 2; classes given as pIC50; ATP 250 μM
RECORDED_METRIC: ROCK IC50

- COMPOUND: "COC(=O)c1ccc(CN(CCN)C(=O)Nc2ccc3cnccc3c2)cc1"
  SYSTEM_TESTED: "ROCK2 (Homo sapiens (Human), UniProt O75116)"
  REPORTED_VALUE: "+ (pIC50<6.0)"
- COMPOUND: "Cl.NCC(NC(=S)Nc1ccc2cnccc2c1)c1cccc2ccccc12 (stereo not drawn)"
  SYSTEM_TESTED: "ROCK2 (Homo sapiens (Human), UniProt O75116)"
  REPORTED_VALUE: "++++ (pIC50>8.0)"
- COMPOUND: "CSc1ccc(CN(CCN)C(=O)Nc2ccc3cnccc3c2)cc1"
  SYSTEM_TESTED: "ROCK2 (Homo sapiens (Human), UniProt O75116)"
  REPORTED_VALUE: "+ (pIC50<6.0)"
- COMPOUND: "NCCN(Cc1ccc(Cl)cc1)C(=S)Nc1ccc2cnccc2c1"
  SYSTEM_TESTED: "ROCK2 (Homo sapiens (Human), UniProt O75116)"
  REPORTED_VALUE: "++++ (pIC50>8.0)"
- COMPOUND: "N#C/N=C(/Nc1ccc2cnccc2c1)N(CCN)Cc1ccccc1"
  SYSTEM_TESTED: "ROCK2 (Homo sapiens (Human), UniProt O75116)"
  REPORTED_VALUE: "++++ (pIC50>8.0)"
- COMPOUND: "NCCN(Cc1ccc(O)cc1)C(=O)Nc1ccc2cnccc2c1"
  SYSTEM_TESTED: "ROCK2 (Homo sapiens (Human), UniProt O75116)"
  REPORTED_VALUE: "+ (pIC50<6.0)"
- COMPOUND: "NCCN(Cc1ccc(F)cc1)C(=O)Nc1cccc2cnccc12"
  SYSTEM_TESTED: "ROCK2 (Homo sapiens (Human), UniProt O75116)"
  REPORTED_VALUE: "+ (pIC50<6.0)"
- COMPOUND: "COc1ccc(CN(CCN)/C(=N\\C#N)Nc2ccc3cnccc3c2)cc1"
  SYSTEM_TESTED: "ROCK2 (Homo sapiens (Human), UniProt O75116)"
  REPORTED_VALUE: "++++ (pIC50>8.0)"
- COMPOUND: "NCC(NC(=S)Nc1ccc2cnccc2c1)c1ccc(F)cc1 (stereo not drawn)"
  SYSTEM_TESTED: "ROCK2 (Homo sapiens (Human), UniProt O75116)"
  REPORTED_VALUE: "++++ (pIC50>8.0)"

====

Biological target: ROCK2 (Homo sapiens (Human), UniProt O75116)
Experiment: Rho-kinase inhibition ELISA (ROCK active-II, MYPT1 substrate)
Format: biochemical
Conditions: Table 2; classes given as pIC50; ATP 250 μM
Procedure: To measure Rho-kinase inhibition, IC50 values were determined according to the following ELISA protocol: ROCK Substrate Coated Plate (Part No 241601): One strip well 96-well plate pre-coated with recombinant MYPT1. […] 14. […] Results should be read immediately (color will fade over time). 15. Read absorbance of each microwell on a spectrophotometer using 450 nm as the primary wave length. […]

- COMPOUND: "CN(C)CCN(Cc1ccc(CO)cc1)C(=S)Nc1cccc2cnccc12"
  ROCK IC50: "+ (pIC50<6.0)"
- COMPOUND: "NCC(NC(=S)Nc1ccc2cnccc2c1)c1ccccc1 (centres unmarked)"
  ROCK IC50: "++++ (pIC50>8.0)"
- COMPOUND: "NCC(NC(=O)Nc1ccc2cnccc2c1)c1ccc(F)cc1 (centres unmarked)"
  ROCK IC50: "++++ (pIC50>8.0)"
- COMPOUND: "COc1cccc(C(CN)NC(=S)Nc2ccc3cnccc3c2)c1 (centres unmarked)"
  ROCK IC50: "++++ (pIC50>8.0)"
- COMPOUND: "COC(=O)c1ccc(CN(CCN(C)C)C(=O)Nc2cccc3cnccc23)cc1"
  ROCK IC50: "+ (pIC50<6.0)"
